# tested-on: shFcRn (human, UniProt P55899)
# Sequence (P55899 24-297, chain 1 of 2): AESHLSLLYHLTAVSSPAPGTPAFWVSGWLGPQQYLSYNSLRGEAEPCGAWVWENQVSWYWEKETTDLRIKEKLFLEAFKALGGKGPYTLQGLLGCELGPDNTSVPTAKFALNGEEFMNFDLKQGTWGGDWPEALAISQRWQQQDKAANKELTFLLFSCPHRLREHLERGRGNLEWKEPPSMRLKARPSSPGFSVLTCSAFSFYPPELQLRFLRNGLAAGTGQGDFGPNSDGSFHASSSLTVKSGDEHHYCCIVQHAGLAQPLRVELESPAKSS
# Sequence (chain, as listed by the source, chain 2 of 2): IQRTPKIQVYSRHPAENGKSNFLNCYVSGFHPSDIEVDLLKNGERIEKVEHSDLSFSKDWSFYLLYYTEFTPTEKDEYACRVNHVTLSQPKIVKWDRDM
# assay-summary: SPR pH 7.4
property: koff (s⁻¹)
State just the number; it will be interpreted in s⁻¹.

Examples with their reported koff follow.
A12-E01 (antibody) chain 1: EVQLVESGGGLVQPGRSLRLSCAASGFTFDEYGMHWVRQAPGKGLEWVSGVSWNSGSIAYADSVRGRFTISRDNAKNSLYLQMNSLRAEDTALYYCAKSRSMDVWGQGTTVTVSS chain 2: QSALTQPASVSGSPGQSITISCTGSSSDVGGYNYVSWYQQHPGKAPKLMIYDVTKRPSGVSNRFSGSKSGNTASLTISGLQAEDEADYYGSYSNNNFYVFGTGTKVTVL ... 0.00115
A12-C09 (antibody) chain 1: EVQLVESGGGLVQPGRSLRLSCAASGFTFDEYGMHWVRQAPGKGLEWVSGVSWNSGSIAYADSVRGRFTISRDNAKNSLYLQMNSLRAEDTALYYCAKGRTMDVWGQGTTVTVSS chain 2: QSALTQPASVSGSPGQSITISCTGSSSDVGGYNYVSWYQQHPGKAPKLMIYDVTKRPSGVSNRFSGSKSGNTASLTISGLQAEDEADYYGSYSSNTFYVFGTGTKVTVL ... 0.000909
A11-G06 (antibody) chain 1: EVQLVESGGGLVQPGRSLRLSCAASGFTFDEYGMHWVRQAPGKGLEWVSGVSWNSGSIAYADSVRGRFTISRDNAKNSLYLQMNSLRAEDTALYYCAKGRLMDVWGQGTTVTVSS chain 2: QSALTQPASVSGSPGQSITISCTGSSSDVGGYNYVSWYQQHPGKAPKLMIYDVTKRPSGVSNRFSGSKSGNTASLTISGLQAEDEADYYGSYNNNTFYVFGTGTKVTVL ... 0.000496
1Ag (antibody) chain 1: EVQLVESGGGLVQPGRSLRLSCAASGFTFDEYGMHWVRQAPGKGLEWVSGVSWNSGSIAYADSVRGRFTISRDNAKNSLYLQMNSLRAEDTALYYCAKGRSMDVWGQGTTVTVSS chain 2: QSALTQPASVSGSPGQSITISCTGSSSDVGGYNYVSWYQQHPGKAPKLMIYDVTKRPSGVSNRFSGSKSGNTASLTISGLQAEDEADYYCSSYSSSTFYVFGTGTKVTVL ... 0.000212

// next entry
Which koff value belongs to A12-E04 (antibody) chain 1: EVQLVESGGGLVQPGRSLRLSCAASGFTFDEYGMHWVRQAPGKGLEWVSGVSWNSGSIAYADSVRGRFTISRDNAKNSLYLQMNSLRAEDTALYYCAKGRLFDVWGQGTTVTVSS chain 2: QSALTQPASVSGSPGQSITISCTGSSSDVGGYNYVSWYQQHPGKAPKLMIYDVTKRPSGVSNRFSGSKSGNTASLTISGLQAEDEADYYGSYSNSNFYVFGTGTKVTVL ? 0.00137
